target: K-Ras protein (Homo sapiens, UniProt P01116, G12V); construct: in SW620 cells, compound I-a-1 can effectively enhance the degradation of endogenous K-RAS-G12V proteins; endogenous in cells; host or cells: SW-620; assay: K-Ras protein degradation rate by Western blot in SW-620 cells; type: cell-based; conditions: 10 μM, SW-620 cells, 24 h, Western blot, relative to DMSO control; read-out: Degradation rate of compounds at 10 μM on Ras protein (%)
Sequence (P01116 1-188 isoform P01116-2 G12V): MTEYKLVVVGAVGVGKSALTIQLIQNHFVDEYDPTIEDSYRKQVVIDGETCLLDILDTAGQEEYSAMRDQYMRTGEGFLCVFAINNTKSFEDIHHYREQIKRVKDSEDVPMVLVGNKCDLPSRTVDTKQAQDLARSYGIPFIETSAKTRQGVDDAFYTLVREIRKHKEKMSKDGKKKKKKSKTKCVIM
Use Satisfied when the recorded percent K-Ras protein degradation (single point) at 10 µM is no lower than 30%; use Not satisfied when it is lower.

Worked set:
>>> label_class("O=C(NCc1c(F)cccc1Cl)c1ccc(-c2n[nH]c3ncccc23)s1")
"Satisfied"
>>> label_class("O=C(NCc1cccc(C(F)(F)F)c1F)c1c[nH]c(-c2n[nH]c3ncccc23)c1")
"Satisfied"
>>> label_class("O=C(NCc1cc(C(F)(F)F)ccc1F)c1c[nH]c(-c2n[nH]c3ncccc23)c1")
"Satisfied"

Is reported percent K-Ras protein degradation (single point) at 10 µM greater than or equal to 30% here: `O=C(Nc1c(F)cccc1Cl)c1cccc(-c2n[nH]c3ncccc23)c1` Not satisfied
